- SYSTEM_NAME: hFASN enzyme (full length) (Homo sapiens, UniProt P49327)
- Construct: 10 μL hFASN enzyme (full length, 300 ng, purified in house); made in house
- Sequence (P49327 whole entry): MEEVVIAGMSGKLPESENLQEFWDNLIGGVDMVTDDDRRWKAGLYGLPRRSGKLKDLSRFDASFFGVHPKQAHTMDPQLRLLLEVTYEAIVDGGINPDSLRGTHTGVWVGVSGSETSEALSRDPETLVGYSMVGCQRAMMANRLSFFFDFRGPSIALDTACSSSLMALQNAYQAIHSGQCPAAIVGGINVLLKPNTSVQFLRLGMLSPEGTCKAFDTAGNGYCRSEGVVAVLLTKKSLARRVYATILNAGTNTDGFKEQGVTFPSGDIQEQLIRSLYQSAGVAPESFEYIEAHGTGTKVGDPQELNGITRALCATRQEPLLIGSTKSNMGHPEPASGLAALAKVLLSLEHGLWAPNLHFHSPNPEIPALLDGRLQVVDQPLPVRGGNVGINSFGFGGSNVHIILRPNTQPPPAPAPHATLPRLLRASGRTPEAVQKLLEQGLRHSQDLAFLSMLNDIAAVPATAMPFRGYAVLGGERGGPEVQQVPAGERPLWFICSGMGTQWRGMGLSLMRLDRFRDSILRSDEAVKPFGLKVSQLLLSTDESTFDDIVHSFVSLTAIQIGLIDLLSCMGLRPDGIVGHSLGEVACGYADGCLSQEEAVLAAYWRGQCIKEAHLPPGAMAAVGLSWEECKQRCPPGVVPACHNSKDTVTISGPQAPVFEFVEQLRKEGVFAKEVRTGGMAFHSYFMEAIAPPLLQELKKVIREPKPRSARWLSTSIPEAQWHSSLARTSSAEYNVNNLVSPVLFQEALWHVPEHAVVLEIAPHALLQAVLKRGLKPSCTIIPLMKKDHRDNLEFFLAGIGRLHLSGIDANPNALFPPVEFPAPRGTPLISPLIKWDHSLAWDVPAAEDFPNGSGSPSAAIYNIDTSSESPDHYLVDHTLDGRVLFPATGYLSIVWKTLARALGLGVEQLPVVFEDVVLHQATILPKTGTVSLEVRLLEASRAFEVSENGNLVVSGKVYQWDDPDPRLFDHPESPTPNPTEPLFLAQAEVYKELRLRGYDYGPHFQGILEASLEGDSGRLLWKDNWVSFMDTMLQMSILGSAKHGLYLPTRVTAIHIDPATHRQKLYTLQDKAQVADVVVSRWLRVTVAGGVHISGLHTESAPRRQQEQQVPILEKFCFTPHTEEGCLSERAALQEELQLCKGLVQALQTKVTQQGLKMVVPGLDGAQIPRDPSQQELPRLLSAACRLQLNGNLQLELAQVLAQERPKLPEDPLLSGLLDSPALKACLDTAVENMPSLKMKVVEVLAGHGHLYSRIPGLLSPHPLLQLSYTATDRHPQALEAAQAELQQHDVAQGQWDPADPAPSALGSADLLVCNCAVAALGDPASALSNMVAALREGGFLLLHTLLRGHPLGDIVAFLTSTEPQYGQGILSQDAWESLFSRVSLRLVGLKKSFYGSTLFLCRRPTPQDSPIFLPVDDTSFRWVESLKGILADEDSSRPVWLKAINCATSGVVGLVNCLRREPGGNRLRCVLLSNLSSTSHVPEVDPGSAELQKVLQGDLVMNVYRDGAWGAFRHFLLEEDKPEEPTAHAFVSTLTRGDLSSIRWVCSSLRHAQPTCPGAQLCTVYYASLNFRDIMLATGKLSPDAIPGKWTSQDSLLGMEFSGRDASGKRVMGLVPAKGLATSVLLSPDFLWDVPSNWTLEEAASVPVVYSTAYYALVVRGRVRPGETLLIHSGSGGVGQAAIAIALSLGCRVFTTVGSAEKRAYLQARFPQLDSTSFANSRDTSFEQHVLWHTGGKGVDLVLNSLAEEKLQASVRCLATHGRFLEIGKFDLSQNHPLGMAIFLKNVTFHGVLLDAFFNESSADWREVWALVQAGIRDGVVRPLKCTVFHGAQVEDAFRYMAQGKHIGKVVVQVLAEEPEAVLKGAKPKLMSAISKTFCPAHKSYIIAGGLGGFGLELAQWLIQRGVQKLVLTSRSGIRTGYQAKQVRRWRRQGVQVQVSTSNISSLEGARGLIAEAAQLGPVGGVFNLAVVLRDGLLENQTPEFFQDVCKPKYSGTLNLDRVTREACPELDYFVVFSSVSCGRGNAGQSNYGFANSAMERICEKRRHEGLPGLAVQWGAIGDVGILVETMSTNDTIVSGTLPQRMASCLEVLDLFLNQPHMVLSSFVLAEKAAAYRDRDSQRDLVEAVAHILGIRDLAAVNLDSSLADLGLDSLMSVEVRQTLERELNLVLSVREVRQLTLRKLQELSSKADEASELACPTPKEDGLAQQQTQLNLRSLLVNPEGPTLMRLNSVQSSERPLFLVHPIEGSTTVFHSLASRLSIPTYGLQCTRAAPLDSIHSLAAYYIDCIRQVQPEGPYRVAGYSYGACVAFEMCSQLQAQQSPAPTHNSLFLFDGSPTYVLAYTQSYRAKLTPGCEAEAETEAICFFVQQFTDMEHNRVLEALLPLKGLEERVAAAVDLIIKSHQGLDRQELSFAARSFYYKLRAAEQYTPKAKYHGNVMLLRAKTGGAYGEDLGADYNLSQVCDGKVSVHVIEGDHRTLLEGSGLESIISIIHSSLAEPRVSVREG
- EXPERIMENT_NOTES: Fatty Acid Synthase (FASN) Inhibition Scintillation Proximity Assay
- Format: biochemical
- TEST_CONTEXT: read-out: FASN % Effect @1E−05M
- Experimental: In this assay, inhibition of FASN activity is measured using ^3H-acetyl-CoA and malonyl-CoA as substrates. ^3H-Acetyl CoA is converted to ^3H-palmitate through a series of reactions by the FASN protein, which contains 7 functional domains and carries out 7 enzymatic reactions to ultimately produce ^3H-palmitate. […] Raw data generated by the instrument were normalized to % Controlmin values, which were calculated as: % Controlmin=100*(x−mLC)/(mHC−mLC) […]
RECORDED_ENDPOINT: inhibition at 10 µM (%)

{"columns": ["COMPOUND", "RECORDED_ENDPOINT", "REPORTED_RESULT"],
 "data": [
  ["Cc1ccc(C(=O)N2CCC(c3ccc(-c4cnn(C)c4)cc3)CC2)cc1NC(=O)C1CN(CC(C)C)C1 [Compound 210]", "inhibition at 10 µM", 108],
  ["Cc1ccc(C(=O)N2CCC(c3ccc(-c4cnn(C)c4)cc3)CC2)cc1NC(=O)c1ccc(NC(C)C)nc1 [Compound #32]", "inhibition at 10 µM", 104],
  ["Cc1ccc(C(=O)N2CCC(c3ccc(-n4ccnc4)cc3)C(C)(C)C2)cc1NC(=O)c1ccc(Cl)nc1 (centres unmarked) [Compound #6]", "inhibition at 10 µM", 104],
  ["Cc1ccc(C(=O)N2CCC(c3ccc(-c4cnn(C)c4)cc3)CC2)cc1NC(=O)c1ccc(N2CCOCC2)nc1 [Compound #91]", "inhibition at 10 µM", 109],
  ["Cc1cc(C(=O)Nc2cc(C(=O)N3CCC(c4ccc(-c5cnn(C)c5)cc4)CC3)ccc2C)ccn1 [Compound 98]", "inhibition at 10 µM", 102],
  ["Cc1ccc(C(=O)N2CCC(c3ccc(-c4cnn(C)c4)cc3)CC2)cc1NC(=O)c1ccc(N(C)C)cn1 [Compound 119]", "inhibition at 10 µM", 98],
  ["CC(C)Nc1ccc(C(=O)Nc2cc(C(=O)N3CCC(c4ccc(-c5cccnc5)cc4)CC3)ccc2Cl)cn1 [Compound 71]", "inhibition at 10 µM", 101],
  ["Cc1ccc(C(=O)N2CC(c3ccc(-c4ccnn4C)cc3)C2)cc1NC(=O)c1ccc(N(C)C2CCN(C)CC2)nc1 [Compound 61]", "inhibition at 10 µM", 103],
  ["Cc1ccc(C(=O)N2CCC(c3ccc(-c4cnn(C)c4)nc3)CC2)cc1NC(=O)c1ccc(NC(C)C)nc1 [Compound 268]", "inhibition at 10 µM", 104],
  ["Cc1ccc(C(=O)N2CCC(c3ccc(-c4cnn(C)c4)cc3)CC2)cc1NC(=O)c1cnc(Cl)nc1 [Compound 136]", "inhibition at 10 µM", 105],
  ["COCCN(C)c1ccc(C(=O)N2CCC(c3ccc(-c4cnn(C)c4)cc3)CC2)cc1NC(=O)c1ccc(NC(C)C)nc1 [Compound 281]", "inhibition at 10 µM", 93],
  ["Cc1ccc(C(=O)N2CCC(c3ccc(-c4cnn(C)c4)cc3)CC2)cc1NC(=O)c1cnc(N2CCOCC2)nc1 [Compound 152]", "inhibition at 10 µM", 106],
  ["Cc1ccc(C(=O)N2CC(c3ccc(-c4ccsc4)cc3)C2)cc1NC(=O)c1ccc(NC(C)C)nc1 [Compound 26]", "inhibition at 10 µM", 105],
  ["Cc1ccc(C(=O)N2CC(c3ccc(-c4cnn(C)c4)cc3)C2)cc1NC(=O)c1cccs1 [Compound 84]", "inhibition at 10 µM", 103]
]}
